Quick reference for pIC50 among some compounds
biological target: GST-tagged K-Ras mutant / His-tagged hSOS1 (Homo sapiens); assay: HTRF assay, K-Ras mutant / SOS1 interaction; assay type: binding; settings: compound nos. 401-703; read-out: IC50 against mutant Kras
Sequence (P01116 whole entry G12D, form open): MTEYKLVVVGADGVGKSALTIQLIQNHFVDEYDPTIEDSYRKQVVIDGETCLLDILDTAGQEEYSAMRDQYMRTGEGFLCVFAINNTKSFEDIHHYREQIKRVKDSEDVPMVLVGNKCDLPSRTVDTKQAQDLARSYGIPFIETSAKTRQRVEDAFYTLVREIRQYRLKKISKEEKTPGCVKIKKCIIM
pIC50: −log10 of the molar value.

* N#Cc1c(N)sc2c(F)ccc(-c3c(Cl)cc4c(N5CC6CCC(C5)N6)nc(OC[C@@]56CCCN5C[C@H](F)C6)nc4c3F)c12 [Compound 638] | > 6.30

What pIC50 appears in the records for this compound with GST-tagged K-Ras mutant / His-tagged hSOS1 (Homo sapiens)? `Cc1ncc(COc2nc(N3CCCCCC3)c3cc(Cl)c(-c4cccc5sc(N)nc45)c(F)c3n2)cn1`
< 6.30

Short answer please: pIC50, GST-tagged K-Ras mutant / His-tagged hSOS1 (Homo sapiens), entry CNCC1CN(c2nc(OCC34CCCN3CCC4)nc3c(F)c(-c4ccc(F)c5sc(N)nc45)c(Cl)cc23)CCCO1 (stereo not drawn)
> 6.30

API: value(readout= pIC50, system= GST-tagged K-Ras mutant / His-tagged hSOS1 (Homo sapiens), query= NC(=O)C1COCCN(c2nc(OC[C@@]34CCCN3C[C@H](F)C4)nc3c(F)c(-c4ccc(F)c5sc(N)nc45)c(Cl)cc23)C1 (stereo partly drawn) )
> 6.30

Which pIC50 is reported with GST-tagged K-Ras mutant / His-tagged hSOS1 (Homo sapiens) for this entry: `Cc1cc(N)nc(-c2ccc3c(N4CC5CCC(C4)N5)nc(OC[C@@]45CCCN4C[C@H](F)C5)nc3c2F)c1C1CC1` ?
< 6.30

Observed pIC50 on GST-tagged K-Ras mutant / His-tagged hSOS1 (Homo sapiens) for `Nc1nc2c(-c3c(Cl)cc4c(N5CC6CCC(C5)N6)nc(OCC56CCCN5CCC6)nc4c3F)cc(F)cc2s1` , please.
> 6.30

###

molecular target: wildtype Kras / hSOS1 (Homo sapiens, UniProt P01116); construct: made in house; host or cells: E. coli BL21 (DE3); experiment: HTRF assay, wildtype Kras / SOS1 interaction; format: binding; conditions: compound nos. 401-703; read-out: IC50 against wildtype Kras
Sequence (P01116 1-188 isoform P01116-2): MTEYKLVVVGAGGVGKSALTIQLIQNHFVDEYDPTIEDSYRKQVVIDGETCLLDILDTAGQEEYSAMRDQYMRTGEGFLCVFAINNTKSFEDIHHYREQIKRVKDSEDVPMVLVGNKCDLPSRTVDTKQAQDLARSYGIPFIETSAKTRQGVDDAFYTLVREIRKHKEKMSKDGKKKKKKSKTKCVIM
pIC50: −log10 of the molar value.
Measured pIC50 accompanies every entry in the list below.

Field: example entries. Status: answers known.
• CC1CCCN(c2nc(OC[C@@H]3CCCN3C)nc3c(F)c(-c4cccc5sc(N)nc45)c(Cl)cc23)CC1 (stereo partly shown) = > 6.30
• Fc1c(-c2cccc3[nH]ncc23)ccc2c(N3CC4CCC(C3)N4)nc(OC[C@@]34CCCN3C[C@H](F)C4)nc12 = < 6.30
• CN1CCC[C@H]1COc1nc(N2CCCCC(N)C2)c2cc(Cl)c(-c3cccc4sc(N)nc34)c(F)c2n1 (stereo partly shown) [Compound 442] = > 6.30

Record request: pIC50 value, item `Nc1nc2c(-c3c(Cl)cc4c(N5CCNCC(F)(F)C5)nc(OCC5(CN6CCCC6)CC5)nc4c3F)ccc(F)c2s1`
> 6.30

So what does the record say about pIC50 for CN1CCC[C@H]1COc1nc(N2CCCCC(N)C2)c2cc(Cl)c(-c3cccc4sc(N)nc34)c(F)c2n1 (stereo partly shown) [Compound 672] ?
< 6.30

Would you kindly share the measured pIC50 for `CN(C)CC1(COc2nc(N3C[C@H]4CC[C@@H](C3)N4)c3cc(Cl)c(-c4cc(O)cc5ccccc45)c(F)c3n2)CC1` ?
< 6.30

Can you look up the measured pIC50 of `Fc1c(Br)c(Cl)cc2c(N3CC4CCC(C3)N4)nc(OC[C@@]34CCCN3C[C@H](F)C4)nc12` for me?
> 6.30

Given the compound `C#Cc1cccc2cc(O)cc(-c3ccc4c(N5CCNCC(F)(F)C5)nc(OC[C@@]56CCCN5C[C@H](F)C6)nc4c3F)c12` , what is its reported pIC50?
< 6.30

What does the record list as pIC50 for `Oc1cc(N2CCc3nc(OCC45CCCN4CCC5)nc(N4C[C@H]5CC[C@@H](C4)N5)c3CC2)c2ccccc2c1` ?
< 6.30

Would you mind telling me what pIC50 value was observed for `Fc1c(-c2cccc3ncccc23)c(Cl)cc2c(N3CCCCCC3)nc(OCC34CCCN3CCC4)nc12` ?
< 6.30

Bench note: what pIC50 did `CO[C@@H]1CN(C)C[C@H]1Oc1nc(N2CC3CCC(C2)N3)c2cc(CCC#N)c(-c3ccc(F)c4sc(N)nc34)c(F)c2n1` show?
> 6.30

Which pIC50 value belongs to Nc1nc2c(-c3c(Cl)cc4c(N5CC6CNC(C6)C5)nc(OC[C@@]56CCCN5C[C@H](F)C6)nc4c3F)ccc(F)c2s1 (stereo partly shown) ?
< 6.30

Any idea what its pIC50 is? The compound is `Cc1cc2[nH]ncc2c(-c2c(Cl)cc3c(N4CC5CCC(C4)N5)nc(OC[C@@]45CCCN4C[C@H](F)C5)nc3c2F)c1Cl`
> 6.30

# query: pIC50 of entry `Nc1c(-c2ccccc2)cccc1-c1c(Cl)cc2c(N3CC4CCC(C3)N4)nc(OCC34CCCN3CCC4)nc2c1F`
< 6.30

Using the record for `Nc1cc2cccc(-c3c(Cl)cc4c(N5CC6CCC(C5)N6)nc(OCC56CCCN5CCC6)nc4c3F)c2cn1` , report its pIC50.
< 6.30

What does the record list as pIC50 for `Nc1nc2c(-c3c(Cl)cc4c(N5CCCCCC5)nc(OCC5(CN6CCCC6)CC5)nc4c3F)ccc(F)c2s1` ?
< 6.30

Which measured pIC50 value corresponds to `Nc1nc2c(-c3cc4c(=O)n(CCN5CCCC5)nc(N5CCCOCC5)c4cc3Cl)ccc(F)c2s1` ?
> 6.30

Looking for the measured pIC50 of `Nc1c(F)ccc(-c2c(Cl)cc3c(N4CC5CCC(C4)N5)nc(OCC45CCCN4CCC5)nc3c2F)c1F` , can you help?
< 6.30

Bench note: what pIC50 did `Cc1ccnc(C(C)C)c1-n1c(=O)nc(N2CC3CCC(C2)N3)c2cc(F)c(-c3c(O)cccc3F)nc21` show?
< 6.30

Look up pIC50: `Nc1nc2c(-c3c(Cl)cc4c(N5CCN(Cc6cncnc6)CC(F)(F)C5)nc(OC[C@@]56CCCN5C[C@H](F)C6)nc4c3F)ccc(F)c2s1`
< 6.30

Requested read-out: pIC50. Entry: `Cc1ccc2cnn(C)c2c1-c1ccc2c(N3CC4CCC(C3)N4)nc(OC[C@@]34CCCN3C[C@H](F)C4)nc2c1F`
> 6.30

What value of pIC50 has been reported for the following compound? N#Cc1c(N)sc2c(F)ccc(-c3c(Cl)cc4c(N5CC6CCC(C5)O6)nc(OC[C@@]56CCCN5C[C@H](F)C6)nc4c3F)c12 [Compound 473]
> 6.30

###

target: wildtype Kras / hSOS1 (Homo sapiens, UniProt P01116); construct: made in house; host or cells: E. coli BL21 (DE3); assay: HTRF assay, wildtype Kras / SOS1 interaction; format: binding; conditions: compound nos. 102-196, general methodology of example 5; read-out: IC50 against wildtype Kras
Catalogue of IC50 readings, one per entry.

A selection of reference data follows.
- CN1CCC[C@H]1COc1nc(N2CCCCC(F)(F)C2)c2cc(Cl)c(-c3ccc(F)c4sc(N)nc34)c(F)c2n1: < 500 nM
- Nc1nc2c(-c3c(Cl)cc4c(N5CCNCC(O)C5)nc(OCC56CCCN5C[C@H](F)C6)nc4c3F)ccc(F)c2s1 (some centres unmarked): < 500 nM
- CN1CCC[C@H]1COc1nc(N2CCNC3COCC32)c2cc(Cl)c(-c3cccc4sc(N)nc34)c(F)c2n1 (some centres unmarked): > 500 nM
- CN1CCC[C@H]1COc1nc(N2CCOCC(F)(F)C2)c2cc(Cl)c(-c3ccc(F)c4sc(N)nc34)c(F)c2n1: < 500 nM

Continue with the next compound.
What measured IC50 goes with `CN1CCC[C@H]1COc1nc(N2CCNCC(F)(F)C2)c2cc(Cl)c(-c3cccc4nc(N)n(C)c34)c(F)c2n1` ?
> 500 nM

###

biological target: GST-tagged K-Ras mutant / His-tagged hSOS1 (Homo sapiens); assay: HTRF assay, K-Ras mutant / SOS1 interaction; assay type: binding; settings: compound nos. 401-703; read-out: IC50 against mutant Kras
QUANTITY_MEASURED: IC50

Would you please look over these solved cases?
• N#Cc1c(N)sc2c(F)ccc(-c3c(Cl)cc4c(N5CCCC6(CCNC6)C5)nc(OC[C@@]56CCCN5C[C@H](F)C6)nc4c3F)c12 (stereo partly drawn) [Compound 592] = < 0.5 µM
• N#Cc1c(N)sc2c(F)ccc(-c3c(Cl)cc4c(N5CCCC6(CNC6)C5)nc(OC[C@@]56CCCN5C[C@H](F)C6)nc4c3F)c12 [Compound 526] = < 0.5 µM
• Nc1nc2c(-c3c(Cl)cc4c(N5CCN(Cc6cncnc6)CC(F)(F)C5)nc(OC[C@@]56CCCN5C[C@H](F)C6)nc4c3F)ccc(F)c2s1 [Compound 649] = < 0.5 µM
• N#CCCc1cc2c(N3CC4CCC(C3)N4)nc(OC[C@@]34CCCN3C[C@H](F)C4)nc2c(F)c1-c1cccc2ccc(F)c(Cl)c12 [Compound 451] = > 0.5 µM
• Fc1c(-c2cccc3c2CCCC3)c(Cl)cc2c(N3CC4CCC(C3)N4)nc(OC[C@@]34CCCN3C[C@H](F)C4)nc12 [Compound 619] = > 0.5 µM

Any idea what IC50 was measured for CCCC1CCCN(c2nc(OC[C@@H]3CCCN3C)nc3c(F)c(-c4cccc5sc(N)nc45)c(Cl)cc23)CC1 (stereo partly drawn) [Compound 646] ?
> 0.5 µM

// returns reported IC50 for input Nc1cccc(-c2c(Cl)cc3c(N4CCCCCC4)nc(OCC45CCCN4CCC5)nc3c2F)c1F [Compound 430]
> 0.5 µM

Please look up its IC50: Cc1ccc(CN)cc1-c1c(Cl)cc2c(N3CC4CCC(C3)N4)nc(OCC34CCCN3CCC4)nc2c1F [Compound 469]
> 0.5 µM

Looking for the measured IC50 of Nc1nc2c(-c3c(Cl)cc4c(N5CCCCCC5)nc(OC[C@@]56CCCN5C[C@H](F)C6)nc4c3F)ccc(F)c2s1 [Compound 499] , can you help?
< 0.5 µM
